B1: MED27 (parent)
chain: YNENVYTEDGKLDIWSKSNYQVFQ

Variants of: B1
Test: protein stability index of a GFP-peptide fusion (GPS, HEK-293T) (PSI 1-6); higher = more stable;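 also: lentivirally expressed fusions sorted by FACS into six bins by GFP to DsRed ratio, PSI derived from sequencing read proportions per bin multiplied by bin number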
Conditions: c terminus: a fixed tail appended

{"variant spec": "V5H", "protein stability index": 2.95}
{"variant spec": "N19F", "protein stability index": 1.67}
{"variant spec": "S16D", "protein stability index": 3.25}
{"variant spec": "N2L", "protein stability index": 1.68}
{"variant spec": "S16W", "protein stability index": 1.91}
{"variant spec": "G10F", "protein stability index": 1.65}
{"variant spec": "E8S", "protein stability index": 1.7}
{"variant spec": "Y6L", "protein stability index": 2.38}
{"variant spec": "S16N", "protein stability index": 2.12}
{"variant spec": "N4K", "protein stability index": 1.8}
{"variant spec": "Y1W", "protein stability index": 2.93}
{"variant spec": "Y20F", "protein stability index": 2.25}
{"variant spec": "V22Q", "protein stability index": 2.73}
{"variant spec": "D13W", "protein stability index": 2.46}
{"variant spec": "G10C", "protein stability index": 1.97}
{"variant spec": "T7C", "protein stability index": 2.63}
{"variant spec": "N19Y", "protein stability index": 2.56}
{"variant spec": "V22L", "protein stability index": 2.28}
{"variant spec": "D9H", "protein stability index": 1.97}
{"variant spec": "Y20G", "protein stability index": 2.62}
{"variant spec": "K11W", "protein stability index": 2}
{"variant spec": "K17I", "protein stability index": 1.74}
{"variant spec": "W15E", "protein stability index": 4.12}
{"variant spec": "S18K", "protein stability index": 1.97}
{"variant spec": "I14G", "protein stability index": 3.29}
{"variant spec": "V22S", "protein stability index": 2.5}
{"variant spec": "Q24Y", "protein stability index": 2.01}
{"variant spec": "E3K", "protein stability index": 2.31}
{"variant spec": "V5E", "protein stability index": 3.28}
{"variant spec": "Q24D", "protein stability index": 2.75}
{"variant spec": "E8W", "protein stability index": 1.64}
{"variant spec": "W15R", "protein stability index": 3.64}
{"variant spec": "K11Q", "protein stability index": 2.38}
{"variant spec": "N2D", "protein stability index": 3.6}
{"variant spec": "G10V", "protein stability index": 1.96}
{"variant spec": "Y1G", "protein stability index": 3.7}
{"variant spec": "Y20P", "protein stability index": 3.01}
{"variant spec": "N2T", "protein stability index": 1.95}
{"variant spec": "Y1E", "protein stability index": 4.04}
{"variant spec": "V5M", "protein stability index": 2.1}
{"variant spec": "S18N", "protein stability index": 2.69}
{"variant spec": "I14W", "protein stability index": 2.15}
{"variant spec": "T7M", "protein stability index": 1.75}
{"variant spec": "Q21M", "protein stability index": 2.21}
{"variant spec": "S16F", "protein stability index": 2.87}
{"variant spec": "D9W", "protein stability index": 2.01}
{"variant spec": "D9F", "protein stability index": 1.76}
{"variant spec": "K11N", "protein stability index": 2.56}
{"variant spec": "N4R", "protein stability index": 2.31}
{"variant spec": "E8D", "protein stability index": 1.84}
{"variant spec": "N4I", "protein stability index": 2.04}
{"variant spec": "E3V", "protein stability index": 1.69}
{"variant spec": "L12K", "protein stability index": 2.33}
{"variant spec": "S18L", "protein stability index": 2}
{"variant spec": "F23W", "protein stability index": 2.16}
{"variant spec": "Y6A", "protein stability index": 2.62}
{"variant spec": "Y1S", "protein stability index": 3.23}
{"variant spec": "F23D", "protein stability index": 3.26}
{"variant spec": "N4V", "protein stability index": 1.89}
{"variant spec": "E8I", "protein stability index": 1.29}
{"variant spec": "Y20I", "protein stability index": 2.37}
{"variant spec": "Y20N", "protein stability index": 3.28}
{"variant spec": "N4F", "protein stability index": 1.93}
{"variant spec": "V5Q", "protein stability index": 3.06}
{"variant spec": "Y1M", "protein stability index": 3.52}
{"variant spec": "W15V", "protein stability index": 3.5}
{"variant spec": "K17G", "protein stability index": 2.34}
{"variant spec": "S18D", "protein stability index": 3.09}
{"variant spec": "F23T", "protein stability index": 3}
{"variant spec": "V22A", "protein stability index": 2.3}
{"variant spec": "V5Y", "protein stability index": 1.97}
{"variant spec": "E8P", "protein stability index": 1.68}
{"variant spec": "Y6N", "protein stability index": 3}
{"variant spec": "D13E", "protein stability index": 2.36}
{"variant spec": "Q24H", "protein stability index": 2.17}
{"variant spec": "D9L", "protein stability index": 1.77}
{"variant spec": "K17C", "protein stability index": 1.54}
{"variant spec": "E8A", "protein stability index": 2.33}
{"variant spec": "L12N", "protein stability index": 2.37}
{"variant spec": "V22E", "protein stability index": 2.52}
{"variant spec": "N4E", "protein stability index": 2.73}
{"variant spec": "Y20W", "protein stability index": 1.64}
{"variant spec": "D9N", "protein stability index": 1.76}
{"variant spec": "W15Q", "protein stability index": 3.89}
{"variant spec": "Q21S", "protein stability index": 1.97}
{"variant spec": "D9S", "protein stability index": 1.96}
{"variant spec": "V5D", "protein stability index": 3.26}
{"variant spec": "Q21V", "protein stability index": 1.82}
{"variant spec": "K17Q", "protein stability index": 1.89}
{"variant spec": "K11F", "protein stability index": 2.22}
{"variant spec": "Q21F", "protein stability index": 1.79}
